Data origin, for the record: PubChem BioAssay AID2060902

# Test system: 485368-065-R3-J5-PDC spheroids with HUVEC/MSC, viability
# test_details: Anticancer human tumor 485368-065-R3-J5-PDC patient-derived pancreatic carcinoma cell line growth inhibition [RAS]
# applied_conditions: second compound 0.3 µM; first compound 1 µM; stronger effect = lower value
// viability, T/C lookup, one value per entry

Example entries begin here.
INSERT INTO assay_data (compound, target_or_system, measured_quantity, measured_result) VALUES
  ('CC(Nc1ccc2c(c1)OCCn1cc(N3C(=O)OCC3C(F)F)nc1-2)C(N)=O (centres undefined) + CCn1c(-c2cccnc2C(C)OC)c2c3cc(ccc31)N1CCOC(CC(NC(=O)C(C(C)C)N(C)C(=O)C3(F)CCN(C(=O)C#CC(C)(C)N(C)C)CC3)C(=O)N3CCCC(N3)C(=O)OCC(C)(C)C2)C1', '485368-065-R3-J5-PDC spheroids with HUVEC/MSC, viability', 'viability, T/C', '83.7%'),
  ('CC1(O)CCCC1n1c(=O)c(C(F)F)cc2cnc(NC3CCN(S(C)(=O)=O)CC3)nc21 (centres undefined) + CCn1c(-c2cc(N3CCN(C)CC3)cnc2C(C)OC)c2c3cc(ccc31)-c1csc(n1)CC(NC(=O)C1CC1C)C(=O)N1CCCC(N1)C(=O)OCC(C)(C)C2', '485368-065-R3-J5-PDC spheroids with HUVEC/MSC, viability', 'viability, T/C', '7.64%'),
  ('Nc1ccn(C2OC(CO)C(O)C2(F)F)c(=O)n1 (centres undefined) + CCn1c(-c2cc(N3CCN(C)CC3)cnc2C(C)OC)c2c3cc(ccc31)-c1csc(n1)CC(NC(=O)C1CC1C)C(=O)N1CCCC(N1)C(=O)OCC(C)(C)C2', '485368-065-R3-J5-PDC spheroids with HUVEC/MSC, viability', 'viability, T/C', '6.63%');

Record request: viability, T/C value, item CC(Nc1ccc2c(c1)OCCn1cc(N3C(=O)OCC3C(F)F)nc1-2)C(N)=O (centres undefined) + CCn1c(-c2cc(N3CCN(C)CC3)cnc2C(C)OC)c2c3cc(ccc31)-c1csc(n1)CC(NC(=O)C1CC1C)C(=O)N1CCCC(N1)C(=O)OCC(C)(C)C2
4.05%

---

pIC50: recorded values
# Tested on: 485368-065-R3-J5-PDC spheroids with HUVEC/MSC, viability
# test_details: Anticancer human tumor 485368-065-R3-J5-PDC cell line growth inhibition [RAS];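 further: spheroids exposed to agents for seven days before readout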
# applied_conditions: curve of first compound; second compound 0.03 µM
pIC50: −log10 of the molar value.

INSERT INTO assay_data (molecule, measured_quantity, measured_result) VALUES
  ('C[C@@H](NC(=O)c1ncnc(N)c1Cl)c1ncc(C(=O)Nc2cc(C(F)(F)F)c(Cl)cn2)s1 + CCn1c(-c2cccnc2C(C)OC)c2c3cc(ccc31)N1CCOC(CC(NC(=O)C(C(C)C)N(C)C(=O)C3(F)CCN(C(=O)C#CC(C)(C)N(C)C)CC3)C(=O)N3CCCC(N3)C(=O)OCC(C)(C)C2)C1', 'pIC50', '< 5.00');

Lab note: next molecule to report on.
May I ask what pIC50 has been recorded for CC(C)NCC(C(=O)N1CCN(c2ncnc3c2C(C)CC3O)CC1)c1ccc(Cl)cc1 (configuration not stated) + CCn1c(-c2cccnc2C(C)OC)c2c3cc(ccc31)N1CCOC(CC(NC(=O)C(C(C)C)N(C)C(=O)C3(F)CCN(C(=O)C#CC(C)(C)N(C)C)CC3)C(=O)N3CCCC(N3)C(=O)OCC(C)(C)C2)C1 ?
< 5.00

---

# Test system: 485368-065-R3-J5-PDC spheroids with HUVEC/MSC, viability
# test_details: Anticancer human tumor 485368-065-R3-J5-PDC cell line growth inhibition [RAS];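 further: spheroids exposed to agents for seven days before readout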
# applied_conditions: second compound 1 µM; first compound 0.3 µM; stronger effect = lower value
Measured viability, T/C of individual entries
Report the figure in % without appending any unit label.

INSERT INTO measurements (compound, target_or_system, unit_symbol, measured_result) VALUES
  ('CC1(C)CCC(Nc2ncc(C(F)(F)F)c(-c3c[nH]c4c(P(C)(C)=O)c(C#N)ccc34)n2)CN1 (centres undefined) + C#Cc1c(F)ccc2cc(O)cc(-c3ncc4c(N5CC6CCC(C5)N6)nc(OCC56CCCN5CC(F)C6)nc4c3F)c12', '485368-065-R3-J5-PDC spheroids with HUVEC/MSC, viability', '%', 31.1),
  ('CC1(C)CCC(Nc2ncc(C(F)(F)F)c(-c3c[nH]c4c(P(C)(C)=O)c(C#N)ccc34)n2)CN1 (centres undefined) + C=CC(=O)N1CCN(c2nc(OCC3CCCN3C)nc3c(F)c(-c4nc(N)cc(C)c4C(F)(F)F)c(Cl)cc23)C(C)C1', '485368-065-R3-J5-PDC spheroids with HUVEC/MSC, viability', '%', 34.2),
  ('CCc1c2c(nc3ccc(O)cc13)-c1cc3c(c(=O)n1C2)COC(=O)[C@]3(O)CC + C#Cc1c(F)ccc2cc(O)cc(-c3ncc4c(N5CC6CCC(C5)N6)nc(OCC56CCCN5CC(F)C6)nc4c3F)c12', '485368-065-R3-J5-PDC spheroids with HUVEC/MSC, viability', '%', 3.15);

Please look at the following compound next.
Data request, read-out viability, T/C, for CCc1c2c(nc3ccc(O)cc13)-c1cc3c(c(=O)n1C2)COC(=O)[C@]3(O)CC + C=CC(=O)N1CCN(c2nc(OCC3CCCN3C)nc3c(F)c(-c4nc(N)cc(C)c4C(F)(F)F)c(Cl)cc23)C(C)C1
3.4

---

// viability, T/C lookup, one value per entry
# Tested on: 485368-065-R3-J5-PDC spheroids with HUVEC/MSC, viability
# test_details: Anticancer human tumor 485368-065-R3-J5-PDC cell line growth inhibition [RAS];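 further: spheroids exposed to agents for seven days before readout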
# applied_conditions: second compound 1 µM; first compound 10 µM; stronger effect = lower value

Completed entries (count: 4):
INSERT INTO results (molecule, measured_quantity, measured_result) VALUES
  ('C[C@@H](NC(=O)c1ncnc(N)c1Cl)c1ncc(C(=O)Nc2cc(C(F)(F)F)c(Cl)cn2)s1 + C=CC(=O)N1CCN(c2nc(OCC3CCCN3C)nc3c(F)c(-c4nc(N)cc(C)c4C(F)(F)F)c(Cl)cc23)C(C)C1', 'viability, T/C', '81.4%'),
  ('Cc1nc(N2CCC3(CC2)COC(C)C3N)c(CO)nc1Sc1ccnc(N)c1Cl (configuration not stated) + C#Cc1c(F)ccc2cc(O)cc(-c3ncc4c(N5CC6CCC(C5)N6)nc(OCC56CCCN5CC(F)C6)nc4c3F)c12', 'viability, T/C', '30%'),
  ('CCC(CC)c1cc(NC2CCC(N)C2)n2nccc2n1 (configuration not stated) + C#Cc1c(F)ccc2cc(O)cc(-c3ncc4c(N5CC6CCC(C5)N6)nc(OCC56CCCN5CC(F)C6)nc4c3F)c12', 'viability, T/C', '6.22%'),
  ('CC(C)NCC(C(=O)N1CCN(c2ncnc3c2C(C)CC3O)CC1)c1ccc(Cl)cc1 (configuration not stated) + C#Cc1c(F)ccc2cc(O)cc(-c3ncc4c(N5CC6CCC(C5)N6)nc(OCC56CCCN5CC(F)C6)nc4c3F)c12', 'viability, T/C', '47%');

# query: viability, T/C of entry CCC(CC)c1cc(NC2CCC(N)C2)n2nccc2n1 (configuration not stated) + C=CC(=O)N1CCN(c2nc(OCC3CCCN3C)nc3c(F)c(-c4nc(N)cc(C)c4C(F)(F)F)c(Cl)cc23)C(C)C1
10.8%

Could you share which viability, T/C value was measured for CC1(O)CCCC1n1c(=O)c(C(F)F)cc2cnc(NC3CCN(S(C)(=O)=O)CC3)nc21 (configuration not stated) + C#Cc1c(F)ccc2cc(O)cc(-c3ncc4c(N5CC6CCC(C5)N6)nc(OCC56CCCN5CC(F)C6)nc4c3F)c12 ?
13.3%

Need viability, T/C of CC1(O)CCCC1n1c(=O)c(C(F)F)cc2cnc(NC3CCN(S(C)(=O)=O)CC3)nc21 (configuration not stated) + C=CC(=O)N1CCN(c2nc(OCC3CCCN3C)nc3c(F)c(-c4nc(N)cc(C)c4C(F)(F)F)c(Cl)cc23)C(C)C1 , thanks.
11.1%

Need viability, T/C of NC1c2ccccc2OC12CCN(c1cnc3c(N4CCCc5ncccc54)n[nH]c3n1)CC2 (configuration not stated) + C=CC(=O)N1CCN(c2nc(OCC3CCCN3C)nc3c(F)c(-c4nc(N)cc(C)c4C(F)(F)F)c(Cl)cc23)C(C)C1 , thanks.
54.9%

Record request: viability, T/C value, item CC(C)NCC(C(=O)N1CCN(c2ncnc3c2C(C)CC3O)CC1)c1ccc(Cl)cc1 (configuration not stated) + C=CC(=O)N1CCN(c2nc(OCC3CCCN3C)nc3c(F)c(-c4nc(N)cc(C)c4C(F)(F)F)c(Cl)cc23)C(C)C1
49.1%

Give the measured viability, T/C of Cc1nc(N2CCC3(CC2)COC(C)C3N)c(CO)nc1Sc1ccnc(N)c1Cl (configuration not stated) + C=CC(=O)N1CCN(c2nc(OCC3CCCN3C)nc3c(F)c(-c4nc(N)cc(C)c4C(F)(F)F)c(Cl)cc23)C(C)C1 .
50.1%

Requested read-out: viability, T/C. Entry: NC1c2ccccc2OC12CCN(c1cnc3c(N4CCCc5ncccc54)n[nH]c3n1)CC2 (configuration not stated) + C#Cc1c(F)ccc2cc(O)cc(-c3ncc4c(N5CC6CCC(C5)N6)nc(OCC56CCCN5CC(F)C6)nc4c3F)c12
18.9%

Consider the molecule CC(=O)OC12COC1CC(O)C1(C)C(=O)C(O)C3=C(C)C(OC(=O)C(O)C(NC(=O)OC(C)(C)C)c4ccccc4)CC(O)(C(OC(=O)c4ccccc4)C21)C3(C)C (configuration not stated) + C#Cc1c(F)ccc2cc(O)cc(-c3ncc4c(N5CC6CCC(C5)N6)nc(OCC56CCCN5CC(F)C6)nc4c3F)c12 and give its measured viability, T/C.
26.3%
